Parameter pIC50: see the listing below.
# system.name: Phospho-KIT (Tyr719) in GIST48 cells (Homo sapiens)
# Sequence (P10721 whole entry V560D/D820A, form open): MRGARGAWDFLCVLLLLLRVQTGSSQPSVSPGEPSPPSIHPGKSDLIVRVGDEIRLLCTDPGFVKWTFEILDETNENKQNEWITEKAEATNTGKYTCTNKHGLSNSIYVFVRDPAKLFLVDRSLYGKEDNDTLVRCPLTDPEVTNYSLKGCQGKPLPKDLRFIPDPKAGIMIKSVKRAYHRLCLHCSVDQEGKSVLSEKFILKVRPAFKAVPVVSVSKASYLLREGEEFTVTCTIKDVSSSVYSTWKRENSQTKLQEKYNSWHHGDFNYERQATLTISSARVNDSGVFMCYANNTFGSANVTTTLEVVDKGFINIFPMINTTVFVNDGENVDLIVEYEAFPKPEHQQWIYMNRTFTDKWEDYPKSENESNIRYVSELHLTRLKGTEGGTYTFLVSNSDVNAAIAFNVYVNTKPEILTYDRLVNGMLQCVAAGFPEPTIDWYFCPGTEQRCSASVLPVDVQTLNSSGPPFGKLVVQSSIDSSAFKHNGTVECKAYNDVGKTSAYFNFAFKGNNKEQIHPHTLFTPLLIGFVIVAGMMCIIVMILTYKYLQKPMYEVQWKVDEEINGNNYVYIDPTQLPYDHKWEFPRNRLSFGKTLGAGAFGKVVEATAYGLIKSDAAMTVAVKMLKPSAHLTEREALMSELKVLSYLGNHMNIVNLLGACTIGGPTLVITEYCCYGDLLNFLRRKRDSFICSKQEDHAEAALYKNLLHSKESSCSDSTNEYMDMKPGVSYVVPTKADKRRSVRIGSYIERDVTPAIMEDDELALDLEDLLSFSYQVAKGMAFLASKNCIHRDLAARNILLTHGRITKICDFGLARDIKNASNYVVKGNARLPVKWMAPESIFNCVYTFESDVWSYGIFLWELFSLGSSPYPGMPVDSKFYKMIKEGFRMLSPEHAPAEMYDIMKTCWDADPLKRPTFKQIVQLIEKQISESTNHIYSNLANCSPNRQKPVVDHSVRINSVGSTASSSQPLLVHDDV
# assay.protocol: GIST48 KIT Western Blot
# conditions: 4 hours, read-out: pKIT suppression by western blot analysi GIST48
pIC50: −log10 of the molar value.

>  <compound>
CCn1c(=O)c(-c2cc(NC(=O)Nc3cc(F)cc(F)c3)c(F)cc2C)cc2cnc(NC)cc21 [Example 60]

>  <system.name>
Phospho-KIT (Tyr719) in GIST48 cells (Homo sapiens)

>  <pIC50>
< 6.00

$$$$
>  <compound>
CCn1c(=O)c(-c2cc(NC(=O)Nc3csc4ccccc34)c(F)cc2Cl)cc2cnc(NC)cc21 [Example 32]

>  <system.name>
Phospho-KIT (Tyr719) in GIST48 cells (Homo sapiens)

>  <pIC50>
> 8.00

$$$$
>  <compound>
CCn1c(=O)c(-c2cc(NC(=O)Nc3ccccc3)c(F)cc2Cl)cc2cnc(NCCOC)cc21 [Example 27]

>  <system.name>
Phospho-KIT (Tyr719) in GIST48 cells (Homo sapiens)

>  <pIC50>
7.00 to 8.00

$$$$
>  <compound>
CCn1c(=O)c(-c2cc(NC(=O)Nc3ccccc3)c(F)cc2Br)cc2cnc(NC(C)=O)cc21 [Example 53]

>  <system.name>
Phospho-KIT (Tyr719) in GIST48 cells (Homo sapiens)

>  <pIC50>
6.00 to 7.00

$$$$
>  <compound>
CCn1c(=O)c(-c2cc(NC(=O)Nc3cccc(F)c3F)c(F)cc2Cl)cc2cnc(NC)cc21 [Example 4]

>  <system.name>
Phospho-KIT (Tyr719) in GIST48 cells (Homo sapiens)

>  <pIC50>
7.00 to 8.00

$$$$

Query :: Quick one: give measured pIC50 for CCn1c(=O)c(-c2cc(NC(=O)Nc3csc4ccccc34)c(F)cc2C)cc2cnc(NC)cc21 [Example 59]
Result :: 7.00 to 8.00

Query :: Consider the compound CC(=O)Nc1cc2c(cn1)cc(-c1cc(NC(=O)Nc3ccccc3)c(F)cc1Cl)c(=O)n2C(C)C [Example 86] and give its recorded pIC50.
Result :: > 8.00

Query :: In one line, give reported pIC50 of the entry CCn1c(=O)c(-c2cc(NC(=O)Nc3ccccc3)c(F)cc2C)cc2cnc(NC(=O)N3CCC3)cc21 [Example 110] .
Result :: > 8.00

Query :: Complete the entry with pIC50 for CNc1cc2c(cn1)cc(-c1cc(NC(=O)Nc3ccccc3)c(F)cc1Cl)c(=O)n2C(C)C [Example 22]
Result :: 7.00 to 8.00

Query :: Identify measured pIC50 associated with CCn1c(=O)c(-c2cc(NC(=O)Nc3ccccc3F)c(F)cc2Cl)cc2cnc(NC)cc21 [Example 25]
Result :: 7.00 to 8.00

Query :: Return the recorded pIC50 value; entry: CCn1c(=O)c(-c2cc(NC(=O)Nc3cc(F)cc(F)c3)c(F)cc2Cl)cc2cnc(NC)cc21 [Example 55]
Result :: < 6.00

Query :: Return value of pIC50 for input CCn1c(=O)c(-c2cc(NC(=O)Nc3cc(F)cc(F)c3)c(F)cc2C)cc2cnc(NC(=O)N(C)C)cc21 [Example 108] , no commentary.
Result :: 6.00 to 7.00

Query :: Give recorded pIC50. CCn1c(=O)c(-c2cc(NC(=O)Nc3cccc(F)c3)c(F)cc2Cl)cc2cnc(N)cc21 [Example 20]
Result :: 6.00 to 7.00

Query :: Provide one value: measured pIC50 of CCn1c(=O)c(-c2cc(NC(=O)Nc3ccccc3)c(F)cc2F)cc2cnc(NC)cc21 [Example 16]
Result :: 6.00 to 7.00

Query :: Dear colleague, please send me the reported pIC50 for CCn1c(=O)c(-c2cc(NC(=O)Nc3ccccc3)c(F)cc2C)cc2cnc(NC)cc21 [Example 23] when you can.
Result :: 6.00 to 7.00

Query :: Check the records and state pIC50 for CCn1c(=O)c(-c2cc(NC(=O)Nc3cccc(F)c3)c(F)cc2Cl)cc2cnc(NCCOC)cc21 [Example 28]
Result :: 6.00 to 7.00

Query :: Output measured pIC50 for this item: CCn1c(=O)c(-c2cc(NC(=O)Nc3ccccc3)c(F)cc2Cl)cc2cnc(NC(=O)N3CC(O)C3)cc21 [Example 81]
Result :: 7.00 to 8.00

Query :: Complete the entry with pIC50 for CCn1c(=O)c(-c2cc(NC(=O)Nc3cccc(Cl)c3)c(F)cc2F)cc2cnc(NC)cc21 [Example 17]
Result :: 7.00 to 8.00
